Test system: 521955-158-R6-J3-PDC complex spheroid growth, % test/control;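 further: spheroids exposed to compounds for 7 days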
measurementProtocol: Anticancer human tumor 521955-158-R6-J3-PDC patient-derived pancreatic carcinoma cell line growth inhibition [Asc]
testConditions: second compound 0.0316 µM; first compound 0.0949 µM; active compounds read low
Mark each entry Y if its viability, T/C sits below 80%, and N for all others.

{"columns": ["compound", "discreteLabel"],
 "data": [
  ["CCN1C(C(=O)NC23CCC(C(=O)O)(CC2)CC3)C(c2cccc(Cl)c2F)C2(C(=O)Nc3cc(Cl)ccc32)C12CCCCC2 (stereo unspecified) + CNC(C)C(=O)NC1CN(S(=O)(=O)c2cccc(S(=O)(=O)N3CCC4CCC(C(=O)NC(c5ccccc5)c5ccccc5)N4C(=O)C(NC(=O)C(C)NC)C3)c2)CCC2CCC(C(=O)NC(c3ccccc3)c3ccccc3)N2C1=O", "N"]
]}

Lab log: compare recorded viability, T/C with 80%; is it strictly lower for CCN1C(C(=O)NC23CCC(C(=O)O)(CC2)CC3)C(c2cccc(Cl)c2F)C2(C(=O)Nc3cc(Cl)ccc32)C12CCCCC2 (stereo unspecified) + Cc1c(S(C)(=O)=O)c(-c2cc(F)cc(N3CCN(c4ccc(NS(=O)(=O)c5ccc(NC(CCN6CCC(C(=O)OCCCP(=O)(O)O)CC6)CSc6ccccc6)c(S(=O)(=O)C(F)(F)F)c5)cc4)CC3)c2)c(-c2ccc(Cl)cc2)n1C(C)C ?
Y

Lab log: compare recorded viability, T/C with 80%; is it strictly lower for NC(=O)C(=Cn1cnc(-c2cc(C(F)(F)F)cc(C(F)(F)F)c2)n1)c1cncnc1 + Cc1c(S(C)(=O)=O)c(-c2cc(F)cc(N3CCN(c4ccc(NS(=O)(=O)c5ccc(NC(CCN6CCC(C(=O)OCCCP(=O)(O)O)CC6)CSc6ccccc6)c(S(=O)(=O)C(F)(F)F)c5)cc4)CC3)c2)c(-c2ccc(Cl)cc2)n1C(C)C ?
N

Lab log: compare recorded viability, T/C with 80%; is it strictly lower for Cc1nc(N2CCC3(CC2)COC(C)C3N)c(CO)nc1Sc1ccnc(N)c1Cl (stereo unspecified) + Cc1c(S(C)(=O)=O)c(-c2cc(F)cc(N3CCN(c4ccc(NS(=O)(=O)c5ccc(NC(CCN6CCC(C(=O)OCCCP(=O)(O)O)CC6)CSc6ccccc6)c(S(=O)(=O)C(F)(F)F)c5)cc4)CC3)c2)c(-c2ccc(Cl)cc2)n1C(C)C ?
Y
